FYI, the data here is from patent US20250197359A1.

test: Caco-2 permeability (A-B and B-A); format: in vitro ADME; details: human, Caco-2, replicate 2; read-out: Papp (BA), 10^−6 cm/s, 2
Field: Papp B→A. Provide a value for each of the molecules that follow.
Kindly write the number and append the unit.

{"molecule": "CC(C)(C)/C(N)=N/C(=N/S(=O)(=O)c1ccc(C(F)(F)F)cc1)N1CCC(c2ccccc2)C(c2ccc(Cl)cc2)=N1 (stereo not shown) [Compound 10o]", "experimental.result": "0.5 ×10⁻⁶ cm/s"}

Please give Papp B→A, item by item, for the list that follows.
1. C/C(N)=N\C(=N\S(=O)(=O)c1ccc(C(F)(F)F)cc1)N1CCC(c2ccccc2)C(c2ccc(Cl)cc2)=N1 (stereo not shown) [Compound 10b]
2. N/C(=N\C(=N\S(=O)(=O)c1ccc(C(F)(F)F)cc1)N1CCC(c2ccccc2)C(c2ccc(Cl)cc2)=N1)c1ccc(F)cc1F (stereo not shown) [Compound 10p]
3. CC(C)C(N/C(=N/S(=O)(=O)c1ccc(C(F)(F)F)cc1)N1CCC(c2ccccc2)C(c2ccc(Cl)cc2)=N1)C(N)=O (single isomer, unassigned) [Compound 29b]

1. 1.8 ×10⁻⁶ cm/s
2. 0.5 ×10⁻⁶ cm/s
3. 0.4 ×10⁻⁶ cm/s
